This collection of values is drawn from ChEMBL document CHEMBL1125245.

Kindly supply the reported ED50 values for the records listed here.
- Tested on: Streptococcus pneumoniae
- assay-method-text: In vivo protection against gram-positive Streptococcus pneumonia (SV-1) in mouse after subcutaneous administration
- Assay type: functional
- assay-context: sc, read-out: PD50

Query: Return value of ED50 for input Br.O=C(O)c1cn(C2CC2)c2cc(N3C[C@@H]4CC3CN4)c(F)cc2c1=O , no commentary.
Reply: 12.5 mg/kg

Query: Return value of ED50 for input O=C(O)c1cn(C2CC2)c2cc(N3C[C@H]4CC3CN4)c(F)cc2c1=O , no commentary.
Reply: 51 mg/kg

Query: Return value of ED50 for input N[C@H]1C[C@H]2CC[C@@H](C1)N2c1c(F)cc2c(=O)c(C(=O)O)cn(C3CC3)c2c1F , no commentary.
Reply: 3.1 mg/kg

Query: Return value of ED50 for input Nc1c(F)c(N2C[C@H]3CC2CN3)c(F)c2c1c(=O)c(C(=O)O)cn2C1CC1 , no commentary.
Reply: 13 mg/kg

Query: Return value of ED50 for input CCN[C@@H]1C[C@H]2CC[C@@H](C1)N2c1cc2c(cc1F)c(=O)c(C(=O)O)cn2C1CC1 , no commentary.
Reply: 23 mg/kg

Query: Return value of ED50 for input Cl.N[C@@H]1C[C@H]2CC[C@@H](C1)N2c1nc2c(cc1F)c(=O)c(C(=O)O)cn2C1CC1 , no commentary.
Reply: 21 mg/kg

Query: Return value of ED50 for input CCN[C@H]1C[C@H]2CC[C@@H](C1)N2c1nc2c(cc1F)c(=O)c(C(=O)O)cn2C1CC1 , no commentary.
Reply: 16 mg/kg

Query: Return value of ED50 for input O=C(O)c1cn(C2CC2)c2nc(N3CCN4CCC3C4)c(F)cc2c1=O (stereo not drawn) , no commentary.
Reply: 20 mg/kg
